system: CAS-1; experiment: cells; type: functional, cell-based, Homo sapiens; settings: Homo sapiens, CAS-1;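 note: growth inhibition of CAS-1 cells, measured with a cell viability assay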
Description: SANGER: Inhibition of human CAS-1 cell growth in a cell viability assay.
Recorded measurements of IC50, one per entry
The answer is to be given in µM; state only the numeric part.

Sample answers from the record:
CO[C@@H]1[C@H](N(C)C(=O)c2ccccc2)C[C@H]2O[C@]1(C)n1c3ccccc3c3c4c(c5c6ccccc6n2c5c31)C(=O)NC4	0.182
C/C(=C\c1csc(C)n1)[C@@H]1C[C@@H]2O[C@]2(C)CCC[C@H](C)[C@H](O)[C@@H](C)C(=O)C(C)(C)[C@@H](O)CC(=O)O1	0.0245

INPUT: Hi! What's the reported IC50 for CN(NC(=O)CC(=O)NN(C)C(=S)c1ccccc1)C(=S)c1ccccc1 on CAS-1?
OUTPUT: 0.116

* * *

test system: MSTO-211H; experiment: cells; type: functional, cell-based, Homo sapiens; details: msto-211h
Description: SANGER: Inhibition of human MSTO-211H cell growth in a cell viability assay.
pIC50: −log10 of the molar value. Where a SMILES comes first, the peptide text is derived from it. The star is where a group is joined. Cbz = O=C(OCc1ccccc1)*
MEASURED PARAMETER: pIC50

INPUT: Would you mind telling me what pIC50 value was observed for CC(C)C[C@@H](C=O)NC(=O)[C@H](CC(C)C)NC(=O)[C@H](CC(C)C)NC(=O)OCc1ccccc1 [MG-132] (Cbz-Leu-Leu-Leu-aldehyde) ?
OUTPUT: < 6.00

* * *

test system: OVCAR-5; experiment: cells; format: functional, cell-based; conditions: Homo sapiens;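 note: growth inhibition of human OVCAR-5 cells, read out with a cell viability assay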
Description: SANGER: Inhibition of human OVCAR-5 cell growth in a cell viability assay.
pIC50: −log10 of the molar value.
MEASURED PARAMETER: pIC50

Cc1ccc(-n2nc(C(C)(C)C)cc2NC(=O)Nc2ccc(OCCN3CCOCC3)c3ccccc23)cc1 [DORAMAPIMOD]	< 5.00
CS(=O)(=O)N1CCN(Cc2cc3nc(-c4cccc5[nH]ncc45)nc(N4CCOCC4)c3s2)CC1 [PICTILISIB]	6.03
CCCCCCCCCCCC1=C(O)C(=O)C=C(O)C1=O [EMBELIN]	< 4.49

With those in mind, consider the next compound.
INPUT: Hi! What's the reported pIC50 for OC[C@H](Cc1ccccc1)Nc1nc(Oc2ccc3c(c2)CCC3)nc2c1ncn2Cc1ccc(-c2ccccc2)cc1 on OVCAR-5?
OUTPUT: < 4.99

* * *

Recorded measurements of pIC50, one per entry
system: LU-99A; test: cells; type: functional, cell-based; conditions: Homo sapiens
Description: SANGER: Inhibition of human LU-99A cell growth in a cell viability assay.
pIC50: −log10 of the molar value.

Sample answers from the record:
NC(=O)Nc1cc(-c2cccc(F)c2)sc1C(=O)N[C@H]1CCCNC1	< 5.70
CC1(C)CCC(c2ccc(Cl)cc2)=C(CN2CCN(c3ccc(C(=O)NS(=O)(=O)c4ccc(N[C@H](CCN5CCOCC5)CSc5ccccc5)c(S(=O)(=O)C(F)(F)F)c4)cc3)CC2)C1	< 5.70
C/C(=C\c1csc(C)n1)[C@@H]1C[C@@H]2O[C@]2(C)CCC[C@H](C)[C@H](O)[C@@H](C)C(=O)C(C)(C)[C@@H](O)CC(=O)O1	8.27

With those in mind, consider the next molecule.
INPUT: Would you mind telling me what pIC50 value was observed for NC(=O)c1ccc(N(C(N)=O)c2c(F)cccc2F)nc1-c1ccc(F)cc1F ?
OUTPUT: < 5.70

* * *

Recorded measurements of IC50, one per entry
tested on: A-375; test: cells; type: functional, cell-based; settings: Homo sapiens
Description: SANGER: Inhibition of human A375 cell growth in a cell viability assay.
The answer is to be given in µM; state only the numeric part.

OC[C@H](Cc1ccccc1)Nc1nc(Oc2ccc3c(c2)CCC3)nc2c1ncn2Cc1ccc(-c2ccccc2)cc1	6.87

With those in mind, consider the next compound.
INPUT: Would you mind telling me what IC50 value was observed for NC(=O)Nc1cc(-c2cccc(F)c2)sc1C(=O)N[C@H]1CCCNC1 ?
OUTPUT: 0.499

* * *

system: ES5; assay: cells; assay type: functional, cell-based, Homo sapiens; conditions: Homo sapiens, ES5;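 note: growth inhibition of human ES5 cells, read out by a cell viability assay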
Description: SANGER: Inhibition of human ES5 cell growth in a cell viability assay.
pIC50: −log10 of the molar value.
Recorded measurements of pIC50, one per entry

Sample answers from the record:
CN(C)CCOc1ccc(-c2nc(-c3ccncc3)c(-c3ccc4c(c3)CC/C4=N\O)[nH]2)cc1 [SB590885]	< 5.30
COc1ccc(-c2cc3nccn3c(Nc3ncccc3C(N)=O)n2)cc1OC	< 5.10
CS(=O)(=O)N1CCN(Cc2cc3nc(-c4cccc5[nH]ncc45)nc(N4CCOCC4)c3s2)CC1 [PICTILISIB]	7.30
CN(NC(=O)CC(=O)NN(C)C(=S)c1ccccc1)C(=S)c1ccccc1 [ELESCLOMOL]	7.93
C[C@@H](Oc1cc(-c2cnn(C3CCNCC3)c2)cnc1N)c1c(Cl)ccc(F)c1Cl [CRIZOTINIB]	< 5.70
COC(=O)[C@H](CCSC)NC(=O)c1ccc(NC[C@@H](N)CS)cc1-c1ccccc1	< 5.99
Cc1cc(N2CCOCC2)cc2[nH]c(-c3c(NC[C@@H](O)c4cccc(Cl)c4)cc[nH]c3=O)nc12	< 5.29
Cc1ccc(NC(=O)c2ccc(CN3CCN(C)CC3)cc2)cc1Nc1nccc(-c2cccnc2)n1 [IMATINIB]	< 5.70

INPUT: Hi! What's the reported pIC50 for NC(=O)Nc1cc(-c2cccc(F)c2)sc1C(=O)N[C@H]1CCCNC1 [AZD-7762] on ES5?
OUTPUT: 6.87

INPUT: Hi! What's the reported pIC50 for Cc1ccc(C(=O)Nc2ccc(CN3CCN(C)CC3)c(C(F)(F)F)c2)cc1C#Cc1cnc2cccnn12 [PONATINIB] on ES5?
OUTPUT: < 6.29

INPUT: Hi! What's the reported pIC50 for Nc1ccccc1NC(=O)c1ccc(CNC(=O)OCc2cccnc2)cc1 [ENTINOSTAT] on ES5?
OUTPUT: < 5.30

* * *

test system: GOTO; assay: cells; type: functional, cell-based, Homo sapiens; settings: Homo sapiens, GOTO
Description: SANGER: Inhibition of human GOTO cell growth in a cell viability assay.
MEASURED PARAMETER: IC50 (nM)
The answer is to be given in nM; state only the numeric part.

Sample answers from the record:
O=C1NC(=O)c2c1c(-c1ccccc1Cl)cc1[nH]c3ccc(O)cc3c21	666
CN(NC(=O)CC(=O)NN(C)C(=S)c1ccccc1)C(=S)c1ccccc1	18.7

INPUT: Would you mind telling me what IC50 value was observed for COc1ccc(-c2cc3nccn3c(Nc3ncccc3C(N)=O)n2)cc1OC ?
OUTPUT: 3420

* * *

test system: HCC1143; experiment: cells; format: functional, cell-based; conditions: Homo sapiens
Description: SANGER: Inhibition of human HCC1143 cell growth in a cell viability assay.
MEASURED PARAMETER: IC50

Sample answers from the record:
COc1ccc(-c2cc3nccn3c(Nc3ncccc3C(N)=O)n2)cc1OC	> 8 µM
COC(=O)[C@H](CCSC)NC(=O)c1ccc(NC[C@@H](N)CS)cc1-c1ccccc1	> 1.02 µM

With those in mind, consider the next compound.
INPUT: Would you mind telling me what IC50 value was observed for C/C(=C\c1csc(C)n1)[C@@H]1C[C@@H]2O[C@]2(C)CCC[C@H](C)[C@H](O)[C@@H](C)C(=O)C(C)(C)[C@@H](O)CC(=O)O1 ?
OUTPUT: > 0.032 µM

* * *

Recorded measurements of pIC50, one per entry
tested on: SW1573; test: cells; assay type: functional, cell-based; settings: Homo sapiens
Description: SANGER: Inhibition of human SW1573 cell growth in a cell viability assay.
pIC50: −log10 of the molar value.

O=S(=O)(O)c1ccc2cc(/N=N/c3cc(S(=O)(=O)O)c4cccnc4c3O)ccc2c1	< 4.80
NC(=O)Nc1cc(-c2cccc(F)c2)sc1C(=O)N[C@H]1CCCNC1 [AZD-7762]	6.03
Cc1ccc(-n2nc(C(C)(C)C)cc2NC(=O)Nc2ccc(OCCN3CCOCC3)c3ccccc23)cc1 [DORAMAPIMOD]	< 5.00
COc1ccc(-c2cc3nccn3c(Nc3ncccc3C(N)=O)n2)cc1OC	< 5.10

With those in mind, consider the next compound.
INPUT: Would you mind telling me what pIC50 value was observed for CN(C)CCOc1ccc(-c2nc(-c3ccncc3)c(-c3ccc4c(c3)CC/C4=N\O)[nH]2)cc1 [SB590885] ?
OUTPUT: < 5.30

* * *

system: NCI-H2347; experiment: cells; type: functional, cell-based; conditions: Homo sapiens
Description: SANGER: Inhibition of human NCI-H2347 cell growth in a cell viability assay.
MEASURED PARAMETER: pIC50
The scale used: pIC50 is minus the common logarithm of the concentration in molar units.

Sample answers from the record:
CN(NC(=O)CC(=O)NN(C)C(=S)c1ccccc1)C(=S)c1ccccc1	7.54
NC(=O)Nc1cc(-c2cccc(F)c2)sc1C(=O)N[C@H]1CCCNC1	5.91

INPUT: Would you mind telling me what pIC50 value was observed for O=C(NCCCNc1nc(Nc2cccc(NC(=O)N3CCCC3)c2)ncc1I)c1cccs1 ?
OUTPUT: 5.31

* * *

Recorded measurements of IC50, one per entry
tested on: SF-126; test: cells; type: functional, cell-based, Homo sapiens; details: Homo sapiens, SF-126
Description: SANGER: Inhibition of human SF126 cell growth in a cell viability assay.
The answer is to be given in nM; state only the numeric part.

Sample answers from the record:
Cc1ccc(C(=O)Nc2ccc(CN3CCN(C)CC3)c(C(F)(F)F)c2)cc1C#Cc1cnc2cccnn12 [PONATINIB]	171
C/C(=C\c1csc(C)n1)[C@@H]1C[C@@H]2O[C@]2(C)CCC[C@H](C)[C@H](O)[C@@H](C)C(=O)C(C)(C)[C@@H](O)CC(=O)O1 [PATUPILONE]	3.47

With those in mind, consider the next compound.
INPUT: Would you mind telling me what IC50 value was observed for CC(C)C[C@H](NC(=O)[C@H](Cc1ccccc1)NC(=O)c1cnccn1)B(O)O [BORTEZOMIB] ?
OUTPUT: 0.701
